Attribution: ChEMBL document CHEMBL1949601

The next entries give measured pKi for Cannabinoid receptor 2 (Homo sapiens, UniProt P34972).
Answers are plain numbers, as −log10 of the molar value.

C=CCn1c2c(c3cc(C(=O)N4CCC(C)CC4)ccc31)CN(CC1CC1)CC2
7.85
CCOc1ccc(Cc2nc3cc(N(C)S(=O)(=O)c4cccs4)ccc3n2CC2CCCCC2)nc1
9.25

For each of the compounds below, state pKi.
1. CCCCCOc1ccc(C(=O)c2cccc3ccccc23)c2ccccc12
2. CCS(=O)(=O)n1c2c(c3cc(C(=O)N4CCC(C)CC4)ccc31)CN(C1CCOCC1)CC2

1. 7.72
2. 8.05

###

# experimentalSystem: Cytochrome P450 2C9 (Homo sapiens, UniProt P11712)
# Sequence (P11712 whole entry): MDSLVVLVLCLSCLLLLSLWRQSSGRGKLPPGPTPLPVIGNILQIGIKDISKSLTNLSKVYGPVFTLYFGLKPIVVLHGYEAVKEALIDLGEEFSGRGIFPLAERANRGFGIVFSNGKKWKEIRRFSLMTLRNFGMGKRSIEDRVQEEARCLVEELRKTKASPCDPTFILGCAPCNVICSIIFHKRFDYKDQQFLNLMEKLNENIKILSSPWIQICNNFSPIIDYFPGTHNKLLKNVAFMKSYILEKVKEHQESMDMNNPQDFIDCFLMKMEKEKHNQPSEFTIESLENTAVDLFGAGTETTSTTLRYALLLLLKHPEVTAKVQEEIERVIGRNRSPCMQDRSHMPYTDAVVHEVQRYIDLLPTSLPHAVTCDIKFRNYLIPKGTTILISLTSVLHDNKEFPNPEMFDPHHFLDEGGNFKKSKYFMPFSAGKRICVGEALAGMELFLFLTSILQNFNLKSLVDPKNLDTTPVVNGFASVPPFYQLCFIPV
pIC50: −log10 of the molar value.
quantityKind: pIC50

// returns reported pIC50 for input "CCS(=O)(=O)n1c2c(c3cc(C(=O)N4CCC(C)CC4)ccc31)CN(C1CCOCC1)CC2"
< 4.70
